Data provenance: patent EP2949653A1

# System: 5-LO mediated product formation
# assay_method_text: 5-LO mediated product formation in intact neutrophils stimulated with A23187 (cell-based)
# Parameters: species or system human
# measurement_setup: Neutrophil; intact human neutrophils stimulated with 2.5 µM A23187; mean ± SE, n = 3-4; read-out: Inhibition of purified 5-LO activity IC50 (µM) cell based
IC50 vs 2 µM: less than gives Yes; not less than gives No.

Cc1cc(OCc2cccc(F)c2)ccc1-c1onc(C(=O)O)c1-c1cccc(Cl)c1 [Compound 10bk] :: Yes
O=C(O)c1noc(-c2ccc(OCc3ccccn3)cc2)c1-c1ccc(Cl)cc1 :: No

### Prompt Does this compound meet the criterion IC50 < 2 µM? "Cc1ccc(COc2ccc(-c3onc(C(=O)O)c3-c3ccc(Cl)cc3)cc2)cc1"
### Response Yes

### Prompt Does this compound meet the criterion IC50 < 2 µM? "O=C(O)c1noc(-c2ccc(OCc3ccc4ccccc4n3)cc2)c1-c1ccc(Cl)cc1"
### Response Yes

### Prompt Does this compound meet the criterion IC50 < 2 µM? Cc1ccccc1COc1ccc(-c2onc(C)c2-c2ccc(Cl)cc2)c(O)c1 [Compound A, reference compound]
### Response No

### Prompt Does this compound meet the criterion IC50 < 2 µM? "Cc1cc(OCc2ccc3ccccc3n2)ccc1-c1onc(C(=O)O)c1-c1ccc(Cl)cc1"
### Response No

### Prompt Does this compound meet the criterion IC50 < 2 µM? "Cc1cc(OCc2ccccc2C(F)(F)F)ccc1-c1onc(C(=O)O)c1-c1ccc(Cl)cc1"
### Response Yes

### Prompt Does this compound meet the criterion IC50 < 2 µM? "N#Cc1cccc(COc2ccc(-c3onc(C(=O)O)c3-c3ccc(Cl)cc3)cc2)c1"
### Response No

### Prompt Does this compound meet the criterion IC50 < 2 µM? "Cc1cc(OCc2cccc(C#N)c2)ccc1-c1onc(C(=O)O)c1-c1ccc(Cl)cc1"
### Response No

### Prompt Does this compound meet the criterion IC50 < 2 µM? "O=C(O)c1noc(-c2ccc(OCc3ccccc3C(F)(F)F)cc2)c1-c1ccc(Cl)cc1"
### Response Yes

### Prompt Does this compound meet the criterion IC50 < 2 µM? "Cc1ccc(COc2ccc(-c3onc(C(=O)O)c3-c3ccc(Cl)cc3)c(C)c2)cc1"
### Response Yes

### Prompt Does this compound meet the criterion IC50 < 2 µM? O=C(O)c1noc(-c2ccc(OCc3cccc(F)c3)cc2)c1-c1cccc(Cl)c1 [Compound 10bj]
### Response Yes

### Prompt Does this compound meet the criterion IC50 < 2 µM? Cc1ccccc1COc1ccc(-c2onc(C(=O)O)c2-c2cccc(Cl)c2)cc1 [Compound 10aj]
### Response No

### Prompt Does this compound meet the criterion IC50 < 2 µM? "O=C(O)c1noc(-c2ccc(OCc3ccccc3Cl)cc2)c1-c1ccc(Cl)cc1"
### Response Yes

### Prompt Does this compound meet the criterion IC50 < 2 µM? "O=C(O)c1noc(-c2ccc(OCc3cccc(F)c3)cc2)c1-c1ccc(Cl)cc1"
### Response Yes

### Prompt Does this compound meet the criterion IC50 < 2 µM? "Cc1cc(OCc2ccccn2)ccc1-c1onc(C(=O)O)c1-c1ccc(Cl)cc1"
### Response Yes

### Prompt Does this compound meet the criterion IC50 < 2 µM? "Cc1ccccc1COc1ccc(-c2onc(C(=O)O)c2-c2ccc(Cl)cc2)cc1"
### Response Yes

### Prompt Does this compound meet the criterion IC50 < 2 µM? "Cc1cc(OCc2ccccc2Cl)ccc1-c1onc(C(=O)O)c1-c1ccc(Cl)cc1"
### Response Yes
